Values compiled from the Human Domainome abundance scans (Beltran et al. 2025).

B1: RNA-binding E3 ubiquitin-protein ligase MEX3C, residues 325 to 391; numbered along this chain, Q5U5Q3 (parent)
chain: GQTTVQVRVPYRVVGLVVGPKGATIKRIQQQTHTYIVTPSRDKEPVFEVTGMPENVDRAREEIEMHI

# Variants of: B1
# assay_procedure: abundance fitness (aPCA) (normalised: wild type 0, dead -1); higher = more abundant; growth selection in yeast, the domain comes from the species named
# condition: Homo sapiens
The variants listed here are annotated with their abundance fitness.
measured_attribute: abundance fitness

• I28C = -0.874
• P53N = -0.295
• T38Y = 0.017
• Q29T = -0.619
• K21N = -0.113
• G22T = -0.68
• T38M = -0.271
• Q30L = -0.505
• G22L = -0.587
• G51T = -1.05
• R41D = 0.048
• Q30C = -0.805
• V46P = -0.66
• D42V = -0.465
• K26Y = -0.944
• E48A = -0.356
• R41T = -0.021
• V49I = 0.129
• I25F = -0.905
• N55F = -0.711
• I25H = -0.62
• Q31G = -0.57
• G51C = -1.05
• P39I = -0.57
• M52H = -0.515
• E54I = -0.377
• I25C = -0.58
• Y35N = 0.1
• E54M = -0.575
• V56C = 0.009
• A23Q = 0.003
• P45F = -0.417
• A23I = -0.332
• Q30D = -0.053
• P53F = -0.488
• S40W = -0.215
• I28A = -0.695
• I36G = -0.586
• R41I = -0.15
• Q31A = -0.272
• T38A = -0.015
• D42A = -0.292
• T38K = -0.333
• D42G = 0.099
• V49P = -1.34
• T24S = -0.731
